Origin of the recorded values: the supplement of paper PMC6555819

# Tested on: PPARg homodimer (NR concentration 180 nM)
# protocolText: PBM binding z-score (relative to random genomic background probes); higher = stronger binding; sequences stand for … in GC…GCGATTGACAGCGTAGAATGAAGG
Can you tell me PBM binding z-score for the items I'm about to list?
Just the number, please.

Short answer on PPARg homodimer (NR concentration 180 nM) for `GGAACGAGGGCATTGGAGTTGATAGCATGGCGAT` , PBM binding z-score: 0.272

The observed PBM binding z-score for `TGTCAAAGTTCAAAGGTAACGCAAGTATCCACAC` when tested with PPARg homodimer (NR concentration 180 nM) stands at 3.82

Record `CGAACGAGGTCAAGGACAGTGAATCTCCGCACGC` ; system PPARg homodimer (NR concentration 180 nM); PBM binding z-score = 2.14

PBM binding z-score value, target or system PPARg homodimer (NR concentration 180 nM), for `ACTAGCAGGCCAAGTTTGGGTCTCTCAAACAAAG` : -1.17

So the reported PBM binding z-score for `TCTCGGAAGACACGAAAGGTCAGAGCTCGACATC` , on PPARg homodimer (NR concentration 180 nM), turned out to be 3.09

# `CGAACTAGGTCCAGGACAGTGAATCTCCGCACGC` with PPARg homodimer (NR concentration 180 nM): PBM binding z-score is -0.302

PPARg homodimer (NR concentration 180 nM) PBM binding z-score of `TCTTGTAGATCAACACGAGGTTAAGAAAGATCGA` is 0.489

Recorded PBM binding z-score for `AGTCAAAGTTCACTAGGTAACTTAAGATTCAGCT` on PPARg homodimer (NR concentration 180 nM) was 1.24

The recorded PBM binding z-score with PPARg homodimer (NR concentration 180 nM) for `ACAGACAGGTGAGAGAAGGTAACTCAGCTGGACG` was -0.0826

Lab note: sequence `ATATGTAGGTTAGCTGGGGACATTCAGACTAGGC` tested on PPARg homodimer (NR concentration 180 nM); recorded PBM binding z-score was 1.9

Summary: `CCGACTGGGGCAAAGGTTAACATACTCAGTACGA` , PPARg homodimer (NR concentration 180 nM), PBM binding z-score = 1.61

PBM binding z-score for PPARg homodimer (NR concentration 180 nM) with input `CCTGCTAGGTAAATGGTCAGCTAAAGCAGCTCGC` equals 0.311

Field PBM binding z-score (PPARg homodimer (NR concentration 180 nM)), entry `AGAACGAGGGCAATGAGCTGATAGCACGGGTGGC` : -0.0817

The sequence `ATCTATAGGTAACCAAGTTCAGTGAATGCCGAAC` , when measured on PPARg homodimer (NR concentration 180 nM), yielded PBM binding z-score of 0.665

`TCTGCTAGGTCAACGATGGTCAACTAATCTGCTA` on PPARg homodimer (NR concentration 180 nM) gives PBM binding z-score = 1.75

Tested on PPARg homodimer (NR concentration 180 nM), the item `TCGAGTATGTTAGGGGCATTCAGAATGGCGTCGA` showed PBM binding z-score equal to -0.24

Item `AGAATGAGGCTAAGATCAGGGAAACAGAATACAT` ; assay system PPARg homodimer (NR concentration 180 nM); PBM binding z-score reported as 0.00249

Test item `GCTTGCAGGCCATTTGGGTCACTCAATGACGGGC` ; PPARg homodimer (NR concentration 180 nM); reported PBM binding z-score was 0.237

The recorded PBM binding z-score with PPARg homodimer (NR concentration 180 nM) for `CCTGATAGGTCAATGGTCAGCTAAAGCAGCTCGC` was 2.74

Here `ATGTGTAGGTTAAGGGTCATTCAGGTTGGTTCGC` was tested on PPARg homodimer (NR concentration 180 nM), and its PBM binding z-score came to 4.52

Form: item `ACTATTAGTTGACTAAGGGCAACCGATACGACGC` ; test system PPARg homodimer (NR concentration 180 nM); PBM binding z-score: 0.638

Field PBM binding z-score (PPARg homodimer (NR concentration 180 nM)), entry `CGTCCAAGGTCAATGCTAGGTCAGCGAAAGCATT` : 7.14

The sequence `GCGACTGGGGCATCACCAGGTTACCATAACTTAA` on PPARg homodimer (NR concentration 180 nM): PBM binding z-score was 0.0676

With PPARg homodimer (NR concentration 180 nM) as the test system, `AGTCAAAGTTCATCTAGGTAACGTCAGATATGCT` showed PBM binding z-score of 5.02

PPARg homodimer (NR concentration 180 nM) assay, sequence `TCTTTTAGTTGAAGGGCAACCGACGAGTCCGTTT` , recorded PBM binding z-score = 0.00638

Response field PBM binding z-score (PPARg homodimer (NR concentration 180 nM)) for item `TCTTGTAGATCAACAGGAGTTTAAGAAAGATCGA` : -0.389
